Source: patent US20250388602A1

molecular target: CYP2E1 (Homo sapiens (Human), UniProt P05181)
Sequence (P05181 whole entry): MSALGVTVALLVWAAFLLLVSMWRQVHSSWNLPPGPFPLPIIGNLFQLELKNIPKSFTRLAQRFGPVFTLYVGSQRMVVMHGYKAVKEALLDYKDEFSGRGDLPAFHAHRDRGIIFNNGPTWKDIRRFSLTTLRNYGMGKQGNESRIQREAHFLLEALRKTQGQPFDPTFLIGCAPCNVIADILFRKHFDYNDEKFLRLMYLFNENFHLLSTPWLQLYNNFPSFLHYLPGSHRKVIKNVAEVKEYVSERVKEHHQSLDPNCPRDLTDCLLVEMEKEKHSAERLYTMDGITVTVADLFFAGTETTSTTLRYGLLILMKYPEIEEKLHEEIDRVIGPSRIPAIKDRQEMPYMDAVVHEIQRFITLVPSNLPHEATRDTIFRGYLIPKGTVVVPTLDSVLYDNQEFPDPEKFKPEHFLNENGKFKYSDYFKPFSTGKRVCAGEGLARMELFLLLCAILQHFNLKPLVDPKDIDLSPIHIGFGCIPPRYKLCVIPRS
pIC50: −log10 of the molar value.
Collected pIC50 values appear next to each entry.
RESULT_TYPE: pIC50

>>> print(df.to_string())
                                   compound  test_result
0  COc1ccc(F)c(-n2ncc3c2CCC[C@H]3NC(=O)c2ncn3c2CCCC3)c1Cl [Compound C, reference compound]       < 4.52
1  COc1ccc(F)c(-n2ncc3c2COC[C@H]3NC(=O)c2ncn3c2CCCC3)c1Cl (single isomer, unassigned)       < 4.52

* * *

experiment: in vitro; details: % remaining at 60 min; 1 μM
For each record, check the reported HLM % remaining: if it is below 90% write Criterion met, else write Criterion not met.

>>> print(df.to_string())
                                   compound       answer_label
0  O=C(N[C@@H]1COCc2c1cnn2-c1ccccc1C(F)(F)F)c1ncn2c1CCCC2  Criterion not met
1  O=C(N[C@@H]1COCc2c1cnn2-c1ccccc1F)c1n[nH]c2c1CCCC2      Criterion met
2  O=C(N[C@H]1COCc2c1cnn2-c1c(F)cccc1Cl)c1ncn2c1CCCC2 (single isomer, unassigned)  Criterion not met
3  COc1ccc(F)c(-n2ncc3c2CCC[C@H]3NC(=O)c2ncn3c2CCCC3)c1Cl [Compound C, reference compound]      Criterion met
